Test: Absorbance and fluorescence emission spectra (SpectraMax M2)
Assay type: physicochemical
Settings: BDCAC library, Table 3
Parameter: λmax Absorp.. Scope: all listed entries.

| MOLECULE | READING_UNIT | λmax Absorp. |
| --- | --- | --- |
| CC(=O)Nc1ccc(C2=C3C=CC(N4CCCCC4)=[N+]3[B-](F)(F)n3c2ccc3-n2cc(C3(O)CCCC3)nn2)cc1 [BDCAC-67] | nm | 469 |
| CC(=O)Nc1ccc(C2=C3C=CC(N4CCCCC4)=[N+]3[B-](F)(F)n3c2ccc3-n2cc(-c3cccc(C)c3)nn2)cc1 [BDCAC-45] | nm | 463 |
| CC(=O)Nc1ccc(C2=C3C=CC(N4CCCCC4)=[N+]3[B-](F)(F)n3c2ccc3-n2cc(-c3cc(C(F)(F)F)cc(C(F)(F)F)c3)nn2)cc1 [BDCAC-30] | nm | 459 |

----------
Test: Quantum yield measurements versus Acridine Yellow in EtOH
Assay type: physicochemical
Conditions: MKCA compound library; quantum yield
QUANTITY_MEASURED: φ (%)

| MOLECULE | QUANTITY_MEASURED | RESULT |
| --- | --- | --- |
| Cc1ccccc1CNC1=[N+]2C(=C(c3ccc(NC(=O)CCl)cc3)c3ccc(-n4cc(CO)nn4)n3[B-]2(F)F)C=C1 [MKCA101-70] | φ (%) | 21.76% |
| O=C(CCl)Nc1ccc(C2=C3C=CC(NCc4cc(F)cc(F)c4)=[N+]3[B-](F)(F)n3c2ccc3-n2cc(C3CC3)nn2)cc1 [MKCA412-4] | φ (%) | 36.25% |
| CC1CN(C2=[N+]3C(=C(c4ccc(NC(=O)CCl)cc4)c4ccc(-n5cc(CC6CCCCC6)nn5)n4[B-]3(F)F)C=C2)CC(C)O1 (stereo not shown) [MKCA20-8] | φ (%) | 6.71% |
| O=C(CCl)Nc1ccc(C2=C3C=CC(N4CCCC4)=[N+]3[B-](F)(F)n3c2ccc3-n2cc(C3CCCC3)nn2)cc1 [MKCA215-5] | φ (%) | 1.94% |
| O=C(CCl)Nc1ccc(C2=C3C=CC(NCc4cc(F)cc(F)c4)=[N+]3[B-](F)(F)n3c2ccc3-n2cc(CC3CCCCC3)nn2)cc1 [MKCA412-8] | φ (%) | 36.92% |
| CN(Cc1ccccc1)C1=[N+]2C(=C(c3ccc(NC(=O)CCl)cc3)c3ccc(-n4cc(C5CCCC5)nn4)n3[B-]2(F)F)C=C1 [MKCA195-5] | φ (%) | 4.93% |
| CCCCCC(O)c1cn(-c2ccc3n2[B-](F)(F)[N+]2=C(NCc4ccccc4OCC)C=CC2=C3c2ccc(NC(=O)CCl)cc2)nn1 (stereo not shown) [MKCA103-69] | φ (%) | 33.49% |
| COc1ccc(OC)c(CNC2=[N+]3C(=C(c4ccc(NC(=O)CCl)cc4)c4ccc(-n5cc(C6CCCC6)nn5)n4[B-]3(F)F)C=C2)c1 [MKCA181-5] | φ (%) | 25.80% |
| CC1CN(C2=[N+]3C(=C(c4ccc(NC(=O)CCl)cc4)c4ccc(-n5cc(C6CCCC6)nn5)n4[B-]3(F)F)C=C2)CC(C)O1 (stereo not shown) [MKCA20-5] | φ (%) | 4.60% |
| O=C(CCl)Nc1ccc(C2=C3C=CC(NCc4cc(F)cc(F)c4)=[N+]3[B-](F)(F)n3c2ccc3-n2cc(CCc3ccccc3)nn2)cc1 [MKCA412-19] | φ (%) | 42.58% |
| O=C(CCl)Nc1ccc(C2=C3C=CC(N4CCc5ccccc5C4)=[N+]3[B-](F)(F)n3c2ccc3-n2cc(C3CCCC3)nn2)cc1 [MKCA66-5] | φ (%) | 3.11% |
| CCCCCC(O)c1cn(-c2ccc3n2[B-](F)(F)[N+]2=C(NCc4cc(OC)ccc4OC)C=CC2=C3c2ccc(NC(=O)CCl)cc2)nn1 (stereo not shown) [MKCA181-69] | φ (%) | 14.25% |
| CC(C)Cc1cn(-c2ccc3n2[B-](F)(F)[N+]2=C(N4CCCC4)C=CC2=C3c2ccc(NC(=O)CCl)cc2)nn1 [MKCA215-43] | φ (%) | 4.04% |
